The reported measurements were obtained from the supplement of paper PMC10126150.

Assignment: determine reported switch fluorescence ratio for the given sequences.
# Tested on: ATP;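 note: ATP exposure 15 min at 22 °C before imaging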
# protocol-details: switch fluorescence ratio, 500 uM ATP over buffer (Cy3 cluster intensity, sum of 5 cycles each) (fold (ratio)); higher = stronger signal-on switching upon ATP binding; sequences stand for … in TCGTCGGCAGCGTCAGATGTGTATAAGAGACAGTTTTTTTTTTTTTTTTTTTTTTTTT…TC
# test-context: aptamer strand: ATP DNA aptamer (quencher-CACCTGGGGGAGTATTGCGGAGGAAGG + anchor), 100 nM annealed; ATP concentration: 500 uM
Lab note: jot down the number only; don't add units.

Reported switch fluorescence ratio ( TTGTTTTTTA ) = 1.01

According to the records, this sequence CGGCGTGTAT displays switch fluorescence ratio of 1

Short answer for ATTGGGTATT : switch fluorescence ratio was 0.975

Documented switch fluorescence ratio of GATGTAATAG : 1.57

Please fill in: switch fluorescence ratio reported for TTCGGATATT = 1.13

switch fluorescence ratio measured on CGGAAAAAGC = 0.985

Recorded switch fluorescence ratio (sequence TTTGGTCGGT ): 0.986

Reported switch fluorescence ratio of ATTTGCGTTT : 0.999

Lab note: CGAGAGGGGG gave switch fluorescence ratio of 0.972

sequence TTTTTGCTTG , switch fluorescence ratio observed: 0.98

Field switch fluorescence ratio (entry AACTATGCAG ) reads 1.02

In plain terms, TATGTTTCGT has a documented switch fluorescence ratio of 1.01

switch fluorescence ratio reading for TAATAAGGGG : 1.02

For record CCATGCCACA the listed switch fluorescence ratio is 1.05

According to the records, this sequence TTCGAAAGGT displays switch fluorescence ratio of 1.1

Measured switch fluorescence ratio of CTCATATGCA : 1

switch fluorescence ratio measured on CGGTCTGCGA = 1.05

Please fill in: switch fluorescence ratio reported for TGGGTGGGTG = 1.04

For this sequence ( CCAGTTGGGA ), measured switch fluorescence ratio is 1

Data point: GCATGCATTG ; switch fluorescence ratio = 0.978
